- target-of-assay: biotinylated CD59 (Homo sapiens, UniProt P13987)
- Construct: Recombinant soluble human CD59 with an additional C-terminal cysteine residue
- Sequence (P13987 26-102 limits assumed): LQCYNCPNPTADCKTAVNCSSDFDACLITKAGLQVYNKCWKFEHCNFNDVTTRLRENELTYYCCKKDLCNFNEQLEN
- experiment: mRNA-display cyclic peptide screen against CD59-biotin, NGS abundance after 6th selection round
- condition-summary: counts normalised by total counts of sample Seq I; percentage of the pool, sheet R6
# Lookup of reported Percentage Seq I keyed by entry
The response must be a number in % with no trailing unit.

Before answering, review these 5 worked examples.
YAFGSRDITYY
0.018
HCWARGSRNYT
0.041
CFSWRLGPAEK
0.020
FVTGSRDHTRG
0.074
GYLNECHTLYTQ
0.034

Request: Recorded Percentage Seq I of `CFARRVNNSSL` , please.
Result: 0.031

Request: // query: `WILGSRWWTQT`
Result: 0.032

Request: // query: `AKGNGHFAYG`
Result: 0.144

Request: // query: `HCWVRGSRSYT`
Result: 0.022

Request: // query: `LVTGNRDHTRG`
Result: 0.023
